pSTAT3 MFI, Monocytes, 0.1 nM (unstimulated 2116) by entry:
Biological target: T1, IL10Rα/IL2Rγ receptor (human, UniProt Q13651 22-578; P31785 23-369)
T1 sequence (looked up) 1: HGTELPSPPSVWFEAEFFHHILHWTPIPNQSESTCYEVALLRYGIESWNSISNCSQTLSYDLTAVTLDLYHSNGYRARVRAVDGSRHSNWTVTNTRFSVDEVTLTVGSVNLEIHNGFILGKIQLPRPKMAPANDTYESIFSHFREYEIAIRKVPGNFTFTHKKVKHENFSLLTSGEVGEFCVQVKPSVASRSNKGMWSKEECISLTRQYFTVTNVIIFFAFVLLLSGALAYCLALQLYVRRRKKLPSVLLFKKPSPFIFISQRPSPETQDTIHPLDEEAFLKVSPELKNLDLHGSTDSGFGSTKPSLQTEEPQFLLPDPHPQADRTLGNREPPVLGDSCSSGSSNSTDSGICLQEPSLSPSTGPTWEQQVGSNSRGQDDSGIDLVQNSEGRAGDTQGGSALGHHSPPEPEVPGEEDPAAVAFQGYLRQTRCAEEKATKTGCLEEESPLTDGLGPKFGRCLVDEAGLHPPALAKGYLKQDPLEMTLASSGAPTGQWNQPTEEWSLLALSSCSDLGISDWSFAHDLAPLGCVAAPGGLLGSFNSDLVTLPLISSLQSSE
T1 sequence (looked up) 2: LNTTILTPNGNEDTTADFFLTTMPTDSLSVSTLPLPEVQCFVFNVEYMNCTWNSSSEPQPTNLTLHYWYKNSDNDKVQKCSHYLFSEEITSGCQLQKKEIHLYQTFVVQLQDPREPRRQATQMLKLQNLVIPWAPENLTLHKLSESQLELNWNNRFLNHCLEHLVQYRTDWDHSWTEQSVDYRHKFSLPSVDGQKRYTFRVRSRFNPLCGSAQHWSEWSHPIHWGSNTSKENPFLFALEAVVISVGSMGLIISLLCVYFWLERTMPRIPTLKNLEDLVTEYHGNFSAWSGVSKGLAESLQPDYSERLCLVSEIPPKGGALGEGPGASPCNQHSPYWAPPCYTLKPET
Test: cell-based or functional assay
Write down the numeric answer in MFI and omit the unit.

Field: example entries. Status: answers known.
>  <binder>
DR471(DR241-DR231) (bispecific antibody) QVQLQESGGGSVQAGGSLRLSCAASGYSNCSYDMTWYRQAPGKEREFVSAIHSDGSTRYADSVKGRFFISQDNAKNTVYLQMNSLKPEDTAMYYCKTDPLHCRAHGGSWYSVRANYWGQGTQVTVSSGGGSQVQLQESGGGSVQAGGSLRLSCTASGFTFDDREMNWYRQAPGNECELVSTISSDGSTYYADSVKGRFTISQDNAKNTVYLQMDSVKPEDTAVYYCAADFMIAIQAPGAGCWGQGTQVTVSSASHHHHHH

>  <observed measurement>
1990

$$$$
>  <binder>
DR441(DR236-DR231) (bispecific antibody) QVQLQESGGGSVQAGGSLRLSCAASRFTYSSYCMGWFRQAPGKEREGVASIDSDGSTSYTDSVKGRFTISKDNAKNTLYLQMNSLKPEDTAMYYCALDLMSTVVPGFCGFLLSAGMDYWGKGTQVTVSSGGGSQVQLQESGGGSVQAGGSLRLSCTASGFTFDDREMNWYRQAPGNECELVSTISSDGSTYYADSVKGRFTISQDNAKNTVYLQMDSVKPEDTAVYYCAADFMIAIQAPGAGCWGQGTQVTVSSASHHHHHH

>  <observed measurement>
2010

$$$$
>  <binder>
DR395(DR229-DR239) (bispecific antibody) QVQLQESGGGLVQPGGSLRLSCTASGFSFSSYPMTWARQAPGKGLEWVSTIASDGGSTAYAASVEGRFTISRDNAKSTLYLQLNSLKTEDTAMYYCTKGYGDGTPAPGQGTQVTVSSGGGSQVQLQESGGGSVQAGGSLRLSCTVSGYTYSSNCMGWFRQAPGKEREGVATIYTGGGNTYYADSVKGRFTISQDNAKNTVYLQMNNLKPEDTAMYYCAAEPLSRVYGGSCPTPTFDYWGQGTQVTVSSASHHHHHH

>  <observed measurement>
2020

$$$$

Reported pSTAT3 MFI, Monocytes, 0.1 nM (unstimulated 2116) ( DR465(DR240-DR231) (bispecific antibody) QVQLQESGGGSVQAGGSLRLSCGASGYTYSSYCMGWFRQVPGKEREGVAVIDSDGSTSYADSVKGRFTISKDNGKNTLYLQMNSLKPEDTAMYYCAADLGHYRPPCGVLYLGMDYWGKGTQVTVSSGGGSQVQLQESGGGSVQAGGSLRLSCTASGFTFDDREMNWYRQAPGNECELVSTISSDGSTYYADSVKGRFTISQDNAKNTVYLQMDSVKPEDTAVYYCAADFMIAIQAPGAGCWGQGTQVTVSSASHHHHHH ) = 1960
